Tested on: COLO 205 colon
ASSAY INFO: NCI-60 one-dose screen, 48 h (100 = growth as untreated, 0 = no growth, -100 = all killed)
PROTOCOL CONDITIONS: 10 µM unless noted
The panel holds about 83,000 compounds, 20% with a hit somewhere; the sample as a whole holds those more often.
Output yes for growth not less than 60%; output no otherwise.

Past entries and their recorded results:
[[record]]
molecule = "CCCn1c(=S)sc2c(NNC(C)=O)nc(C)nc21"
answer_label = "yes"

[[record]]
molecule = "CC1=C2[C@@H](CC1)[C@]1(C)O[C@@](C3CCNCC3)(C[C@H]1OC(=O)CO)[C@H]2OC(=O)/C=C/c1ccccc1"
answer_label = "yes"

[[record]]
molecule = "CN(C)c1ccc(C(=S)c2ccc(N(C)C)cc2)cc1"
answer_label = "yes"


Problem: Record CCOc1ccc(NC(=O)Nc2ccc(OCC)cc2)cc1 ; criterion: growth no lower than 60%. Met?
Solution: yes

====

Test system: 786-0 renal
ASSAY INFO: NCI-60 one-dose screen, 48 h (100 = growth as untreated, 0 = no growth, -100 = all killed)
PROTOCOL CONDITIONS: 10 µM unless noted
This is part of a sample that, as a whole, favours compounds with a hit. Of some 83,000 tested, about 20% had one in any assay.
METRIC: growth (%)
Answers are plain numbers, in %.

These solved cases illustrate the format of a correct answer.
[[record]]
molecule = "COc1cc(-c2nccc3[nH]c(-c4cccc5[nH]ccc45)nc23)cc(OC)c1OC"
value_unit = "%"
observed_value = 7.27

[[record]]
molecule = "CCOC(=O)c1nnn(Cc2cc(=O)oc3ccc(O)cc23)c1C"
value_unit = "%"
observed_value = 103

[[record]]
molecule = "CS(=O)(=O)Nc1cc(-c2ccc3ncnc(Nc4ccc5c(cnn5Cc5ccncc5)c4)c3c2)cnc1Cl"
value_unit = "%"
observed_value = 66.3

[[record]]
molecule = "O=[N+]([O-])c1ccccc1Nc1ccc2ccccc2c1"
value_unit = "%"
observed_value = 83.5

[[record]]
molecule = "OC1CSSC1Cn1cnc2c(Nc3ccc(OCc4cccc(F)c4)c(Cl)c3)ncnc21 (centres undefined)"
value_unit = "%"
observed_value = 69.5


I'm hoping you can list growth for every molecule here, please.
1. COCCn1cc(-c2nc(-c3c[nH]c4ncccc34)cs2)c2ccccc21
2. COc1ccc(Cl)cc1Nc1nc(C(F)(F)F)ccc1C(=O)N/N=C/c1ccc([N+](=O)[O-])cc1
3. Cc1cc(O)c(=O)cc2c1C[C@H]1CC(C)(C)/C=C/C[C@]3(C)Oc4cc(=O)c(O)cc(C)c4C[C@H]3C[C@H](O)[C@@]1(C)O2
4. CCOC(=O)CNC1=C(Cl)C(=O)N(Cc2ccc(Cl)cc2)C1=O

Solution:
77.9
8.42
-1.45
99

====

System: SF-539 CNS
ASSAY INFO: NCI-60 one-dose screen, 48 h (100 = growth as untreated, 0 = no growth, -100 = all killed)
PROTOCOL CONDITIONS: 10 µM unless noted
The panel holds about 83,000 compounds, 20% with a hit somewhere; the sample as a whole holds those more often. The source made the active and inactive calls. Rule for the calls: active = growth percent below 10; inactive = the rest.
METRIC: growth

These solved cases illustrate the format of a correct answer.
[[record]]
compound = "CN(C)CCCn1c2c(c3ccncc3c1=O)C(=O)c1ccccc1-2"
observed_value = "-17% (active)"

[[record]]
compound = "COc1ccc(-c2cc(-c3cccnc3)nc3sc4c(N)c(C(C)=O)c(-c5ccccc5)nc4c23)cc1OC"
observed_value = "52.8% (inactive)"

[[record]]
compound = "COc1ccc(/C=C/C(c2cc(OC)c(OC)c(OC)c2)n2cncn2)cc1O (centres undefined)"
observed_value = "-4.58% (active)"

[[record]]
compound = "COC(=O)/C(CCC=C(C)C)=C1\\[C@@H](OC(C)=O)C[C@@]2(C)[C@H]1C/C(=N/O)[C@H]1[C@@]3(C)CC/C(=N\\O)[C@@H](C)[C@@H]3CC[C@@]12C"
observed_value = "89.4% (inactive)"

[[record]]
compound = "O=CCCCOCc1ccccc1"
observed_value = "101% (inactive)"

[[record]]
compound = "N=C(N)c1ccc(-c2ccc(-c3cc(Cl)cc(Cl)c3)s2)s1"
observed_value = "-60.6% (active)"


I'm hoping you can list growth for every compound here, please.
1. Clc1ccc(Nc2ncc(Cc3cccc(Cl)c3Cl)s2)cc1
2. CSc1ccc2c3c(n(CCCn4ccnc4)c(=O)c2c1)-c1ccccc1C3=O
3. CN1C(=O)/C(=C/c2ccc(C(=O)Nc3ncc(Cc4cc(Cl)ccc4Cl)s3)cc2)SC1=S

Solution:
["94.7% (inactive)", "4.89% (active)", "79.8% (inactive)"]

FYI, the data here is from PubChem BioAssay (NCI).
